Hey, just so you know, these numbers are from PubChem BioAssay AID1963869.

- Test system: KRAS patient-derived spheroids with HUVEC/MSC, viability;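 further: spheroids exposed to agents for 7 days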
- assay details: Anticancer human tumor 323965-272-R-J2-PDC patient-derived pancreatic carcinoma cell line growth inhibition [KRAS2]
- test conditions: curve of first compound; second compound 1 µM
measured metric: pIC50
Please report pIC50 as the negative decimal logarithm of the molar concentration, giving only the number.

Consider the reported pIC50 for these molecules:
pIC50 measured on CC(=O)Nc1cccc(-n2c(=O)n(C3CC3)c(=O)c3c(Nc4ccc(I)cc4F)n(C)c(=O)c(C)c32)c1 + COc1cc2nc(C)nc(NC(C)c3cc(N)cc(C(F)(F)F)c3)c2cc1OC1CCOC1 = 9.15

pIC50 measured on CC(C)n1nc(-c2ccc3oc(N)nc3c2)c2c(N)ncnc21 + C=CC(=O)N1CCN(c2nc(=O)n(-c3c(C)ccnc3C(C)C)c3nc(-c4c(O)cccc4F)c(F)cc23)C(C)C1 = 9.29

// below: pIC50 requested for another molecule
pIC50 measured on Cn1nccc1Nc1nccc(-c2cc3c(s2)C(C)(C)N(CCN2CCOCC2)C3=O)n1 + COc1cc2nc(C)nc(NC(C)c3cc(N)cc(C(F)(F)F)c3)c2cc1OC1CCOC1 = 6.73
